- Test description: NCI Yeast Anticancer Drug Screen. Data for the mlh1 rad18 strain (AID 175)
- Condition summary: S. cerevisiae mlh1 rad18 strain growth inhibition; at 50.0 µM; stronger effect = higher value
Compounds without any hit were thinned out: in the full panel of roughly 79,000, 15% have a hit.
Readout type: growth inhibition (%)
Please reply with the bare figure in % and do not write the unit itself.

Prompt: For CC1(CCl)COP(=O)(NN)OC1 (stereo not given) , write its growth inhibition.
Response: 5.35

Prompt: Using known records, supply growth inhibition for COP(=O)(NC(=O)OC(C)C)OC
Response: -7.95

Prompt: Identify measured growth inhibition associated with COc1ccc(C(=O)O)cc1OC
Response: 5

Prompt: Please give measured growth inhibition of the following entry: CC(=O)OC1CC(OC2C(O)CC(OC3C(O)CC(OC4CCC5(C)C(CCC6C5CC(O)C5(C)C(C7=CC(=O)OC7)CCC65O)C4)OC3C)OC2C)OC(C)C1OC1OC(CO)C(O)C(O)C1O (stereo not given)
Response: 10.6

Prompt: Return growth inhibition for the following molecule: O=C(O)CC(=O)O.[Ti].[c-]1[c-][c-][cH-][c-]1.[c-]1[c-][c-][cH-][c-]1
Response: -0.95

Prompt: State its growth inhibition for this molecule: CCOS(=O)OCC
Response: 9.2

Prompt: Note down growth inhibition recorded for C[C@]12CCC(=O)C=C1CC[C@H]1[C@@H]3CCC(=O)[C@@]3(C)CC[C@@]12F
Response: -5.75

Prompt: Note down growth inhibition recorded for CC(C)(C)OC(=O)NCC(=O)NC(CSC(c1ccccc1)c1ccccc1)C(=O)NCC(=O)O (stereo not given)
Response: 15.1

Prompt: Please give measured growth inhibition of the following entry: O=c1oc2cc(O)ccc2c(O)c1C(c1cccnc1)c1c(O)c2ccc(O)cc2oc1=O
Response: -80.5

Prompt: Quickly give me recorded growth inhibition for CN(C)P1(=S)NCC(C(C)(C)C)CO1 (stereo not given)
Response: -43.4

====

- Test description: NCI Yeast Anticancer Drug Screen. Data for the sgs1 mgt1 strain (AID 161);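 further: 0% = growth of cultures given vehicle only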
- Condition summary: S. cerevisiae sgs1 mgt1 strain, at 50.0 µM, stronger effect = higher value
The panel holds about 79,000 compounds, 15% with a hit somewhere; the sample as a whole holds those more often.
Kindly state growth inhibition for each of the entries shown.
Give just the number in %; leave the unit off.

Prompt: Specify growth inhibition for C1=C/CCC2NC2C/C=C/CCC/1 (stereo unspecified) and stop.
Response: -10.6

Prompt: Kindly indicate its recorded growth inhibition. Item: O=[N+]([O-])c1ccc(NC(c2ccccc2)P(=O)(Oc2ccccc2)Oc2ccccc2)cc1 (stereo unspecified)
Response: -43.1

Prompt: Specify reported growth inhibition for the compound shown: O=[P+](O)c1cc2ccccc2c2ccccc12
Response: -4.75

Prompt: Give the reported growth inhibition for this compound. CS/C([S-])=N/N=C(C)C.CS/C([S-])=N/N=C(C)C.[Pt+2]
Response: 0.7

Prompt: Please give measured growth inhibition of the following entry: CCC(CC)(COC(=O)C(O)(c1ccccc1)c1ccccc1)C[N+](C)(C)C
Response: 1

Prompt: Report growth inhibition for [CH3][Sn]([CH3])([CH3])[O][N+](=O)[O-]
Response: 44.6

====

Provide the recorded growth inhibition for the entries that follow.
- Test description: NCI Yeast Anticancer Drug Screen. Data for the bub3 strain (AID 167)
- Condition summary: S. cerevisiae bub3 mutant strain, at 50.0 µM, stronger effect = higher value
The panel holds about 79,000 compounds, 15% with a hit somewhere; the sample as a whole holds those more often.
All answers are understood in %, so give the number only.

Prompt: # return recorded growth inhibition for entry CC(=O)c1ccc(-c2ccccc2)cc1
Response: 3.6

Prompt: Identify measured growth inhibition associated with C[Se]C([Se]C)=C([Se]C)[Se]C
Response: -0.4

Prompt: Tell me its growth inhibition given O=[Te]=O as the entry.
Response: 5.55

Prompt: Give the value of growth inhibition reported for the following: N.O=S(=O)(O)O.[Al]
Response: -5.1

Prompt: Annotate the compound CC(N)CCc1ccccc1 (configuration not stated) with its measured growth inhibition.
Response: 3.6

Prompt: Input COc1ccc(C[As+](c2ccccc2)(c2ccccc2)c2ccccc2)cc1 , output reported growth inhibition.
Response: 93

Prompt: For the compound S=P(Nc1ccc(Cl)cc1)(Nc1ccc(Cl)cc1)c1ccccc1 , report growth inhibition.
Response: 99.1
